Target: T1, human C1s (human, UniProt P09871 16-688)
T1 construct: Analyte in the Biacore assays; also called hC1s; serum-derived human C1s (CompTech)
T1 sequence: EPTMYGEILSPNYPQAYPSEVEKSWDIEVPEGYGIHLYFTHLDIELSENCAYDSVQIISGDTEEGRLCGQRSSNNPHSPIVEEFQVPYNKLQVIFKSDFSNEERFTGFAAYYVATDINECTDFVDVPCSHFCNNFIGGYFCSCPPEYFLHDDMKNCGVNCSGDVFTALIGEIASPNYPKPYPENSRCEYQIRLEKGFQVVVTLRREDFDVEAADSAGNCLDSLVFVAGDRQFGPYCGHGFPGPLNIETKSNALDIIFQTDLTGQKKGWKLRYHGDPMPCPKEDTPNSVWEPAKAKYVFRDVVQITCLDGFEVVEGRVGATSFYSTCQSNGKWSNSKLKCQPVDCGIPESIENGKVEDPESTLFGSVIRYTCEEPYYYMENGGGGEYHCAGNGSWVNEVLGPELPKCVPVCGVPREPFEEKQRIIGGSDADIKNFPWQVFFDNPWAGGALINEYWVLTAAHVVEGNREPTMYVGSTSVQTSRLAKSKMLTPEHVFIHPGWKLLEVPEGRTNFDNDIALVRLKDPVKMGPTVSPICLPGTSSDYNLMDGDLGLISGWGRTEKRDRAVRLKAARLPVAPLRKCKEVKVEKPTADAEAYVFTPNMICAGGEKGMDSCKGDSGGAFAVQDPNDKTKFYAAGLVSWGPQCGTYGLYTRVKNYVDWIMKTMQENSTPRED
Assay: SPR (Biacore T200, 37C), Ab captured on protein A/G; pH 5.8, 3 uM Ca
MEASURED PROPERTY: Kd (nM)
Number only, in nM; omit the unit.

Kd in this record for C1_IPN92H0117-SG4GK/IPN93L0024-SK1 (antibody, human IgG4 S228P, kappa, name in Kabat numbering, V domains shown, Substitutions from IPN009VH2, Kabat numbering; also called IPN92H0117/IPN93L0024) VH: EVMLVESGGGLVKPGGSLRLSCAASGFTFSNYAMSWVRQAPGKGLEWVATISQGGSHTYYLDSVKGRFTISRDNSKDTLYLQMNSLRAEDTALYYCARLFTGHAMDYWGQGTLVTVSS VL: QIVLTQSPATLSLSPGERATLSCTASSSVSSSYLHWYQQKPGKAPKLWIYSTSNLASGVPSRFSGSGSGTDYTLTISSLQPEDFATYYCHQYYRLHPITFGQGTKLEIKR : 7.71
